Measured pIC50 values are reported for all entries that follow.
System: HIV-1
test: HIV-1 inhibition assay in magic (magi) cells, β-galactosidase expressing cells counted
Type: cell-based, HIV-1 strain HXB2
assayConditions: Human immunodeficiency virus 1, MAGI; magic cells, HIV-1, drug pretreatment 4 hours, fixed two days later; read-out: Anti-HIV IC50
pIC50: −log10 of the molar value.
recordedEndpoint: pIC50

| entrySmiles | testedTarget | assayResult |
| --- | --- | --- |
| N=C(N)c1ccc2nc(-c3ccc(-c4nc5ccc(C(=N)N)cc5[nH]4)o3)[nH]c2c1 | HIV-1 | 4.57 |
| c1cc2nc(-c3ccc(-c4nc5ccc(C6=NCCN6)cc5[nH]4)o3)[nH]c2cc1C1=NCCN1 | HIV-1 | 5.10 |
| N=C(N)c1ccc2nc(-c3ccc4oc(-c5nc6ccc(C(=N)N)cc6[nH]5)cc4c3)[nH]c2c1 | HIV-1 | 4.70 |
| CC(C)NC(=N)c1ccc2nc(-c3ccc(-c4nc5ccc(C(=N)NC(C)C)cc5[nH]4)o3)[nH]c2c1 | HIV-1 | 5.86 |
